System: Xenopus laevis tadpoles
Assay: Tadpole loss of righting (LRR) and swimming (LSR) reflexes
Format: in vivo
Conditions: 3 h equilibration at room temperature
property label: LRR ED50 (loss of righting response)

INSERT INTO assay_data (compound, property_label, value_reported) VALUES
  ('COC1CCCC23CCC4C(CCC5CC(O)CCC54C)C2CCC13 (stereo not drawn) [Compound 69]', 'LRR ED50 (loss of righting response)', 'None @ 10'),
  ('CC12CCC(O)CC1CCC1C2CCC23CCCC(O)C2CCC13 (stereo not drawn) [Compound 67]', 'LRR ED50 (loss of righting response)', 'None @ 10'),
  ('C=C1CCC[C@]23CCC4C(CC[C@H]5C[C@H](O)CC[C@]45C)C2CC[C@H]13 (stereo partly drawn)', 'LRR ED50 (loss of righting response)', '>10 µM');
